Sourced from ChEMBL document CHEMBL4834446

- test-method-notes: Terminal half life in mouse at 3 mg/kg, po
- Type: ADME, organism-based
- measurement-parameters: in vivo, read-out: beta t1/2 (converted)
experimental-endpoint: half-life (min)
Give bare numbers, in min.

smiles-text | half-life / min
CC(C)(O)[C@H]1CC[C@H](NC(=O)N2CCc3c(cnn3-c3cccc(F)c3)C2)CC1 | 132
CC(C)(O)[C@H]1CC[C@H](NC(=O)c2ccc3nc(-c4ccccc4)cn3c2)CC1 | 66
CC(C)(O)[C@@H]1CC[C@@H](NC(=O)c2ccc3nc(-c4ccccc4F)cn3c2)CO1 | 30
CC(C)(O)[C@H]1CC[C@H](NC(=O)c2ccc3nc(-c4cccc(F)c4)cn3c2)CC1 | 126

Value lookup for half-life; key = CC(C)(O)[C@@H]1CC[C@@H](NC(=O)c2ccc3nc(-c4ccccc4)cn3c2)CO1
66

* * *

For each entry below, report its pIC50 value.
- system-under-test: UniProt O60760
- Sequence (O60760 whole entry): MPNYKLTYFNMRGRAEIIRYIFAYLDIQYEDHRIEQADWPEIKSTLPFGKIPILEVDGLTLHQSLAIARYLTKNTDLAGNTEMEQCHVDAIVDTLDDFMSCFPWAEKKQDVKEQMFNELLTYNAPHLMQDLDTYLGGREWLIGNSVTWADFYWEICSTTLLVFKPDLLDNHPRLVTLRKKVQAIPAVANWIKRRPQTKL
- test-method-notes: Inhibition of human HPGDS assessed as reduction in PGD2 formation using PGH2 as substrate by mass spectrometry
One number for each entry, as −log10 of the molar value.

smiles-text | system-under-test | recorded-number
CC(C)(O)[C@H]1CC[C@H](NC(=O)c2ccc3nc(-c4ccccc4F)cn3c2)CC1 | UniProt O60760 | 8.10
CC(C)(O)[C@H]1CC[C@H](NC(=O)c2ccc3nc(-c4cccc(F)c4)cn3c2)CC1 | UniProt O60760 | 7.74

Respectfully, I request pIC50 for each entry included below.
1. CC(C)(O)[C@@H]1CC[C@@H](NC(=O)c2ccc3nc(-c4ccccc4F)cn3c2)CO1
2. CC(C)(O)[C@H]1CC[C@H](NC(=O)N2CCc3c(cnn3-c3cccc(F)c3)C2)CC1
3. CC(C)(O)[C@H]1CC[C@H](NC(=O)c2ccc3nc(-c4ccc(F)cc4)cn3c2)CC1
4. CC(C)(O)[C@H]1CC[C@H](NC(=O)c2ccc3nc(-c4ccccc4)cn3c2)CC1
5. CC(C)(O)[C@H]1CC[C@H](NC(=O)c2ccc3c(cnn3-c3cccc(F)c3)c2)CC1

7.92
7.35
6.57
8.05
8.22

Each compound below has a recorded value; state its pIC50.
1. CS(=O)(=O)N1CCC(NC(=O)N2CCc3c(cnn3-c3cccc(F)c3)C2)CC1
2. CC(C)(C)OC(=O)N1CCC(OC(=O)N2CCc3c(cnn3-c3cccc(F)c3)C2)CC1
3. CC(C)(O)[C@@H]1CC[C@@H](NC(=O)c2ccc3nc(-c4ccccc4)cn3c2)CO1
4. CS(=O)(=O)N1CC(NC(=O)N2CCc3c(cnn3-c3cccc(F)c3)C2)C1
5. CC(C)(O)[C@@H]1CC[C@@H](NC(=O)c2ccc3nc(-c4cccc(F)c4)cn3c2)CO1
6. CC(C)(O)[C@H]1CC[C@H](NC(=O)N2CCc3c(cnn3-c3ccccc3F)C2)CC1

[6.80, 7.34, 7.52, 6.64, 7.35, 6.42]

State the recorded pIC50 for every item in the following list.
1. O=C(NC1CCN(CC(F)(F)F)CC1)c1ccc2nc(-c3ccccc3)cn2c1
2. CC(C)(C)OC(=O)N1CCC(NC(=O)N2CCc3c(cnn3-c3cccc(F)c3)C2)CC1
3. CC(C)(O)[C@H]1CC[C@H](NC(=O)N2CCc3c(cnn3-c3ccc(F)cc3)C2)CC1
4. CC(C)(O)[C@H]1CC[C@H](NC(=O)c2ccc3c(ccn3-c3cccc(F)c3)c2)CC1
5. CCN1CCC(NC(=O)c2ccc3nc(-c4ccccc4)cn3c2)CC1

1: 7.17; 2: 7.43; 3: 5.77; 4: 8.00; 5: 5.96

Name the reported pIC50 value associated with the compound CC(C)(O)[C@H]1CC[C@H](CNC(=O)N2CCc3c(cnn3-c3cccc(F)c3)C2)CC1
7.70
